System: RARa:RXR (NR concentration 270 nM, RXRa partner concentration 90 nM)
Experimental Details: PBM binding z-score (relative to random genomic background probes); higher = stronger binding; sequences stand for … in GC…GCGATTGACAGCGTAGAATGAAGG
Reported Metric: PBM binding z-score
Give bare numbers.

Recorded results for 10 sequences are shown here.
Briefly, PBM binding z-score measured for `ATCTCTAGGTAAAAGTTTAGTGAATCCCGAGGAT` : 0.103

Input `AATACAGGGCCACTAGGCCAGAGTAGGTACGAAT` . Output PBM binding z-score: -0.268

The sequence `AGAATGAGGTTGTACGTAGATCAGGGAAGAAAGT` showed PBM binding z-score equal to 0.411

According to the records, this sequence `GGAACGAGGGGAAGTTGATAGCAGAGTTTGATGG` displays PBM binding z-score of -0.228

# sequence `CGAACTAGGTCAGAACAGGAGAGTGAAGGATGAT` ; its PBM binding z-score = 0.576

Value of measured PBM binding z-score for the entry `TGAATGAGGTTAAAGCTCAGGGAACGTGGCGTCG` : 1.84

Summary for this sequence, `AGCCAAAGTTCACTAGGTAACGTAAGATTCAGCT` : PBM binding z-score is 2.78

Memo: `TCTAGCAGGTCAGAGGGTCACTCAAGAGGTACGG` , reported PBM binding z-score: 5.12

PBM binding z-score measured on `ATCGAAAGGTCGACGAGGTGCGTATACACCGTTT` = 2.45

sequence `TCTTGTAGATCAACAGAGGTTAAGAAAGTGCGCT` , PBM binding z-score observed: 1.95

Answer for every listed entry: what is its PBM binding z-score? The entries follow.
1. CTACCCAGGTGAACAAGGTCGTTGATTACTATTC
2. TCATATAGGTAATACAGGTGAAAGTTGGCATCTA
3. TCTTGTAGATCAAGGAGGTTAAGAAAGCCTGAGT
4. AATACAGGGTCACTAGGCCAGGGTAGGTACGAAT
5. CCTACTGGGCCACGAAAGGTCATTGCTTCAGTGA
6. TCTTGTAGATCAATAGAGGGTAAGAAAGTGCGCT
7. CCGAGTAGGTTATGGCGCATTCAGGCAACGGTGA

1. 1.61
2. 1.77
3. 0.789
4. 3.76
5. 5.35
6. 0.841
7. 0.131

Would you mind listing PBM binding z-score for each of the following sequences?
1. AGAATGAGGTTATACGTAGACCAGGGAAGAAAGT
2. ACAGACAGGGGAGTGAAGGTAACTCAGCTGGACG
3. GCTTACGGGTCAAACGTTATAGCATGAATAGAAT

[1.48, -0.342, 4.41]

Hi, could you look up PBM binding z-score for each item in my list?
1. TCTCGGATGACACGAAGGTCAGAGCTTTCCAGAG
2. ACTATTTGGTCAGCTGAGGTCACACACAATTCGG
3. TGGATGAGGTTAAAGATCAGGGAACGTGGCGTCG
4. GCTTACGGGTTAAAGGTTATAGCATGAATAGAAT
5. AGTCAAAGTCCAGGACGAGGTAACGTAAAGCACG
6. TCGAGTAGGTTACCAATGGGGCAATCAGCTTTCT

[2.3, 4.3, 3.96, 6.08, -0.00617, 0.261]
